Where do the numbers come from? From PubChem BioAssay (NCI).

Tested on: ACHN renal
Experiment: NCI tumour cell line growth inhibition, 48 h
MEASUREMENT NAME: TGI

As a guide, the following entries are already answered.
Cc1cc(C)nc(NS(=O)(=O)c2ccc(Nc3nc4nc(NCc5ccccc5)nc(-c5ccc(O)cc5)c4c(=O)[nH]3)cc2)n1 :: > 100 µM
O=C1C2c3[nH]c4ccccc4c3C3CCC(c4ccccc4)CC3C2C(=O)N1c1ccccc1 (centres undefined) :: > 100 µM
O=C(/C=C/c1ccc[nH]1)c1ccccc1 :: > 100 µM

I would be grateful if you could share the reported TGI for COc1ccc(-c2cnc(SCC(=O)c3c(C)n(C)n(-c4ccccc4)c3=O)n2-c2ccc(OC)cc2)cc1 .
> 50 µM
